# Assay protocol: P. aeruginosa biofilm formation inhibitors, primary screen, PAO1 strain, BacTiter-Glo luminescence, LB-PBS (AID 1144)
# Assay conditions: 12 h, higher = more signal
The source made the active and inactive calls. The rule behind the calls is not given here.
Readout type: z-score

// worked examples, z-score included
1. COc1cc2c(cc1O)C(c1ccc(CN3CCCC3)cc1)N(C)CC2 (configuration not stated)    0.374 (inactive)
2. CO[C@H]1O[C@H](CO)[C@@H](OC(=O)Nc2ccc(C#N)cc2)[C@@H]2OC(=O)[C@H](Cc3cccc(Br)c3)C/C=C/C[C@@H](Cc3cccc(Br)c3)C(=O)O[C@@H]12    -1.36 (inactive)

Task: Answer with the recorded z-score for the molecule listed here: COCCOC(=O)N1C(=O)[C@@]2(c3cc(C#CCNC(N)=O)ccc31)[C@H](c1ccc(O)cc1)N1[C@H](c3ccccc3)[C@H](c3ccccc3)OC(=O)[C@H]1[C@@H]2C(N)=O
Result: 0.175 (inactive)

Task: Answer with the recorded z-score for the molecule listed here: COc1ccc(NC(=O)O[C@H]2[C@@H]3OC(=O)[C@H](Cc4cccc(Br)c4)C/C=C/C[C@@H](Cc4cccc(Br)c4)C(=O)O[C@H]3[C@@H](OC)O[C@@H]2CO)cc1
Result: 0.388 (inactive)

Task: Give me measured z-score, please, for this molecule: C[C@]1(C(=O)NCCN2CCOCC2)c2ccccc2C(=O)N(Cc2cc(F)cc(C(F)(F)F)c2)[C@H]1c1ccc(CO)cc1
Result: -1.32 (inactive)

Task: For the molecule COCCOC(=O)N1C(=O)[C@@]2(c3cc(C#CCC(C(=O)OC)C(=O)OC)ccc31)[C@H](c1ccc(O)cc1)N1[C@H](c3ccccc3)[C@H](c3ccccc3)OC(=O)[C@H]1[C@@H]2C(=O)NC[C@H](O)c1ccccc1 , give its measured z-score value.
Result: -0.0824 (inactive)

Task: Read off the recorded z-score for Cc1nc2cc(Br)ccc2c(=O)n1Cc1cccc(O)c1
Result: -0.0703 (inactive)

###

A collection of compounds and their measured composite z-score
# Tested target: Pro-neuregulin-1, membrane-bound isoform (Homo sapiens) (UniProt Q02297)
# Sequence (Q02297 whole entry, looked up, canonical isoform): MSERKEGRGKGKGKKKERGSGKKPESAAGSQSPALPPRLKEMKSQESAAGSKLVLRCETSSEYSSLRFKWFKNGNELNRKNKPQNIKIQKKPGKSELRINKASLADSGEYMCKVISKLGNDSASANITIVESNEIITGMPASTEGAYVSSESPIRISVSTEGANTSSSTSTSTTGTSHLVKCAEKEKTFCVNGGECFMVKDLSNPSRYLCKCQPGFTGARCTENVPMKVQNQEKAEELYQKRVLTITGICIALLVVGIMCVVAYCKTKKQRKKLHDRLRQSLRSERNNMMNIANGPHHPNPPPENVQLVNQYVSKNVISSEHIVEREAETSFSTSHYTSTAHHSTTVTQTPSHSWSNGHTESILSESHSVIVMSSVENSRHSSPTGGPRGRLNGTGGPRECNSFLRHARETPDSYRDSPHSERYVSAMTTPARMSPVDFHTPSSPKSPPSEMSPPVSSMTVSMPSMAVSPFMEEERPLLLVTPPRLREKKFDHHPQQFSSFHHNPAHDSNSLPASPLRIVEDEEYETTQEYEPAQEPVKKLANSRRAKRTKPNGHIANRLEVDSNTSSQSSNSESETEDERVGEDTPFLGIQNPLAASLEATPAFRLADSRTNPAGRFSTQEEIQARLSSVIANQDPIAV
# Assay protocol: NRG1 binders on small-molecule microarrays, primary screen, psychiatric disease protein project, biochemical, small-molecule microarray, fluorescence 635/667 (AID 1075);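 note: score combines 667 nm spot fluorescence with signal to noise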
# Assay conditions: NRG1 binding, 635 nm fluorescence, higher = more signal
When you answer, write just the number.

1) O=C1N[C@@H](Cc2ccccc2)C(=O)N2[C@@H]1C[C@@H](C(=O)O)[C@H]2c1ccc(O)cc1    1.77
2) COCCOC(=O)N1C(=O)[C@@]2(c3cc(C#Cc4ccc(OC)cc4)ccc31)[C@H](c1ccc(OCCO)cc1)N1[C@H](c3ccccc3)[C@H](c3ccccc3)OC(=O)[C@H]1[C@@H]2C(=O)Nc1nc2ccccc2s1    0.864
3) COc1ccc(C#Cc2ccc3c(c2)[C@]2(C(=O)N3)[C@H](C(=O)N3CCCCCCC3)[C@H]3C(=O)O[C@H](c4ccccc4)[C@H](c4ccccc4)N3[C@@H]2c2ccc(O)cc2)cc1    -0.234
4) CCCCC=C[C@@H](NC(=O)c1ccccc1)c1ccccc1    0.868
5) COC(=O)[C@@]1(Cc2ccc(F)cc2)[C@H]2c3cc(C(=O)N4CCCC4)n(C)c3C[C@H]2CN1C(=O)c1ccccc1    2.15

Task: Answer with the recorded composite z-score of CCCNC(=O)[C@@]1(C)c2ccccc2C(=O)N(Cc2ccccc2)[C@H]1c1ccc(CO)cc1 only.
Result: 1.97

Task: Quick one: give measured composite z-score for CCCCNC(=O)c1ccc(C#C[Si](C(C)C)(C(C)C)C(C)C)c(OC(C)=O)c1
Result: 0.812

Task: Tell us which composite z-score value is on record for O=C1NC(=O)C2C1C=CC(C(O)c1ccccn1)N2Nc1ccc(Cl)cc1Cl (stereo not given)
Result: 1.36

Task: Please report composite z-score for the following compound: CCN(CC)c1ccc(N2CC=CC34O[C@@H]5C=CCCOC(=O)C5[C@H]3C(=O)N(CCO)[C@@H]4C2=O)cc1 (stereo not given in full)
Result: -0.684

Task: Read the entry CN(C)CCCC[C@@H]1NC(=O)[C@@H]2C[C@H](C(=O)O)[C@H](c3cccc(OCCO)c3)N2C1=O and write its reported composite z-score.
Result: -0.579

Task: Note composite z-score for the compound shown: CCOC(=O)C1=CC[C@@H](c2ccccc2)N(S(=O)(=O)c2ccc(C)cc2)[C@H]1c1cccc(OC)c1
Result: 1.28

Task: Recall and state the measured composite z-score for CC(C)(C)OC(=O)CC[C@]1(C(=O)N2CCCCC2)COC(c2ccc(OCCCO)cc2)=N1 .
Result: 1.35

Task: In one line, give reported composite z-score of the entry CN(C)CCCCNC(=O)[C@H]1C[C@H]2C(=O)N[C@@H](CCCC[N+](C)(C)C)C(=O)N2[C@H]1c1ccc(O)cc1 .
Result: -0.506

Task: Name the recorded composite z-score of the item O=C(NCCN1CCOCC1)[C@@H]1c2ccccc2C(=O)N(Cc2ccccc2)[C@H]1c1ccc(CO)cc1 in your answer.
Result: 1.77

Task: Given C=CCC(OC(C)=O)[C@@H]1[C@@H](N(Cc2cccc3ccccc23)C(=O)c2cccc3ccccc23)c2cc(OCCCO)ccc2N1C(=O)c1ccc2ccccc2c1 (stereo not given in full) , respond with its composite z-score.
Result: -0.247

###

# Assay protocol: mitochondrial membrane potential change in A549 cells, profiling panel, cell-based, JC-1 fluorescence, basal, 24 h, 100 nL (AID 1138);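 note: A549 lung adenocarcinoma cells under basal conditions with no added stimulus; test concentration not given here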
# Assay conditions: higher = more signal
Readout type: z-score
Lab note: record just the number, no unit beside it.

Examples with their reported z-score follow.
1. CCCNC(=O)[C@@]1(Sc2ccc(C)cc2)CC(=O)N(C(C)C)[C@@H]1c1ccc(CO)cc1I    0.794
2. COc1ccc([Si](C)(C)[C@@H]2[C@@H](CCn3cc([C@H](O)c4ccccc4)nn3)O[C@]3(C(=O)N(c4ccccc4)c4ccccc43)[C@H]2C)cc1    0.00801
3. C=C(/C(=C/C[C@@H](OC(C)=O)c1ccc(OCCO)cc1)c1cc(C(=O)OC)ccc1OC)C(C)C    0.471

Task: Find the measured z-score of CCCCC(=C=CC[C@H](O)c1ccc(OCCO)cc1)C[C@H](O)c1cc(Cl)cc(Cl)c1O and report it.
Result: 0.62

Task: Consider the molecule C=C(C(=O)CC[C@@H](OC(=O)c1ccccc1-c1ccccc1C(=O)O)c1ccccc1OCCO)C(C)C and give its recorded z-score.
Result: -0.0391

Task: Quickly give me recorded z-score for CCOC(=O)C[C@H]1[C@H](OC(=O)c2ccc(C(=O)c3ccccc3)cc2)[C@@H](NC(=O)CC(C)C)c2cc(OCCCO)ccc2N1C(=O)Cc1ccc(OC)cc1
Result: 0.911

Task: State, in one line, measured z-score of COc1ccc([Si](C)(C)[C@H]2[C@H](CCO)O[C@@]3(C(=O)N(Cc4ccccc4)c4ccc(N5CCOC5=O)cc43)[C@@H]2C)cc1
Result: 0.571

###

# Tested target: Albumin (Bos taurus)
# Assay protocol: bovine serum albumin binders on microarray, profiling panel, artefact control for SMM control protein annotation, biochemical, small-molecule microarray, Alexa647 label, 635/667 nm fluorescence (AID 1118);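 note: score merges 667 nm emission intensity and signal-to-noise per printed compound spot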
# Assay conditions: BSA-A647 binding, fluorescence 635 nm, higher = more signal
Readout type: composite z-score
// response body must contain only the number

// below: answered molecules
1) CO[C@H]1O[C@H](CO)[C@@H](OC(=O)Nc2cccc(F)c2)[C@H](OC(=O)Nc2ccccc2-c2ccccc2)[C@H]1OC(=O)Nc1ccccc1-c1ccccc1    -0.8
2) [N-]=[N+]=NCc1ccccc1C[C@]1(C(=O)N2CCOCC2)COC(c2ccc(OCCCO)cc2)=N1    0.754
3) O=C1C2C=CC(C(O)c3cc(C(F)(F)F)cc(C(F)(F)F)c3)N(Nc3ccccc3F)C2C(=O)N1c1ccccc1 (centres undefined)    1.01
4) CC(=O)N1CC(C(O)C2C=CC3C(=O)NC(=O)C3N2Nc2ccc(Cl)cc2Cl)c2ccccc21 (centres undefined)    0.892
5) C=CCC(OC(C)=O)[C@@H]1[C@@H](N(Cc2ccc(-c3ccccc3)cc2)C(=O)Cc2ccc(F)cc2)c2cc(OCCCO)ccc2N1C(=O)Cc1ccc2ccccc2c1 (some centres undefined)    0.232

Task: Specify composite z-score for CC(C)C(CO)N1C(=O)[C@@H]2[C@H]3C(=O)OCC=C[C@H]3OC23C=CCN(C(C)(C)C)C(=O)[C@@H]13 (some centres undefined) and stop.
Result: -0.0498

Task: For Cc1c(NC(=O)/C(C#N)=C/c2ccccc2Cl)c(=O)n(-c2ccccc2)n1C , write its composite z-score.
Result: 0.942

Task: Find the measured composite z-score of COc1ccc(CCNC(=O)[C@@]2(Cc3ccccc3I)c3ccccc3C(=O)N(Cc3ccccc3Cl)[C@H]2c2ccc(CO)cc2)cc1 and report it.
Result: -0.41

Value source: PubChem BioAssay
